Assay: ATG_MRE_CIS: Attagene CIS-FACTORIAL HepG2 Assay for human Metal Responsive Element (MRE) (AID 2282954)
Conditions: HepG2 MRE cis-reporter transcription, Attagene multiplex; actives raise or lower the signal
The source made the active and inactive calls. The calls were made as follows: active = hit-call score of the fitted dose curve at least 0.9, where 1 is the maximum; inactive = score below 0.9.
// one of active, inactive, no free text

CCCN(CCC)c1c([N+](=O)[O-])cc(C(F)(F)F)c(N)c1[N+](=O)[O-] :: active
CCCCCCC(C)OC(=O)COc1nc(F)c(Cl)c(N)c1Cl (stereo not given) :: inactive
COC(=O)c1ccc(I)cc1S(=O)(=O)NC(=O)Nc1nc(C)nc(OC)n1 :: inactive
CCCN(CCC)C(=O)SCC :: inactive

In the following, a different compound is considered.
Outcome logged for `CCOC(=O)c1ccc(O)cc1` in this assay:
inactive

* * *

Experiment: CCTE_Shafer_MEA_acute_cross_correlation_HWHM: CCTE's Neural Acute Assay for Cross Correlation at Half Width at Half Maximum, Shafer Lab (AID 2284026);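 also: percent change per well from pre-dose baseline in spike cross-correlogram half width; hits are a decrease in cross-correlogram half width relative to DMSO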;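 as to outcome: spontaneous network firing of rat primary cortical neurons on multiwell microelectrode arrays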
The source made the active and inactive calls. How the source made its calls: active means hit-call score of the fitted dose curve at least 0.9, where 1 is the maximum; inactive means score below 0.9.
Write down one outcome, taken from active, inactive

Consider the following illustrative entries.
O=C(Nc1ccc([N+](=O)[O-])cc1Cl)c1cc(Cl)ccc1O :: active
Oc1ccc(C(c2ccc(O)cc2)C(Cl)(Cl)Cl)cc1 :: active

What did this assay record as the result for `CCNc1nc(N)nc(Cl)n1` ?
inactive

Write down the call the test reported for this compound. Item: CCCCC(CC)CN1C(=O)C2C3C=CC(C3)C2C1=O (configuration not stated)
inactive

Field: outcome | Entry: `CC(C)(C)[C@@H](O)[C@@H](Cc1ccc(Cl)cc1)n1cncn1`
inactive

* * *

Read-out: Vascular cell adhesion molecule 1 (VCAM1), VCAM1 (gene 7412)
Assay: BSK_hDFCGF_VCAM1: BioMAP Diversity Plus: hDFCGF Assay for Vascular cell adhesion molecule 1 (VCAM1) Biomarker Activity (AID 2283065)
Conditions: primary human foreskin fibroblasts; actives raise or lower the signal
The source made the active and inactive calls. Rule for the calls: active = hit-call score of the fitted dose curve at least 0.9, where 1 is the maximum; inactive = score below 0.9.
Hi! Could you answer with just one of these? Yes = active, No = inactive

Answered cases to consult:
O=C(Nc1ccc([N+](=O)[O-])cc1Cl)c1cc(Cl)ccc1O :: Yes
CC1(C)C(C=C(Cl)Cl)C1C(=O)OCc1cccc(Oc2ccccc2)c1 (stereo not drawn) :: No
c1ccc(Nc2ccccc2)cc1 :: No
CCOC(=O)COc1cc(-n2ncc(C(F)(F)F)c(C)c2=O)c(F)cc1Cl :: No
Oc1ccc(C(c2ccc(O)cc2)C(Cl)(Cl)Cl)cc1 :: Yes
CCCOC(=O)NCCCN(C)C :: No
CCCCCCC(C)OC(=O)COc1nc(F)c(Cl)c(N)c1Cl (stereo not drawn) :: Yes
COC(=O)c1ccc(I)cc1S(=O)(=O)NC(=O)Nc1nc(C)nc(OC)n1 :: No

How was CCCCC(CC)COC(=O)c1ccccc1C(=O)O (stereo not drawn) classified in this test?
Yes

Write down the call the test reported for this compound. Item: `CCN(Cc1c(F)cccc1Cl)c1c([N+](=O)[O-])cc(C(F)(F)F)cc1[N+](=O)[O-]`
No

Hi team, can someone confirm the assay call for `COC(=O)c1cccc(C)c1S(=O)(=O)NC(=O)Nc1nc(OCC(F)(F)F)nc(N(C)C)n1` ?
No

Dear all, I need the recorded test outcome for `CCOC(=O)[C@H](C)Oc1ccc(Oc2nc3ccc(Cl)cc3o2)cc1` , thank you.
No

Which result was noted for this compound in the test: `N[C@@H](Cc1cc(I)c(Oc2ccc(O)c(I)c2)c(I)c1)C(=O)O`
Yes

Field: outcome | Entry: `CCN(CC)C(=O)c1cccc(C)c1`
No

For this compound, state the assay outcome: `O=C(c1ccc(O)cc1O)c1ccc(O)cc1O`
No

What outcome does the record of this test show for `COC(=O)c1ccc(CNS(C)(=O)=O)cc1S(=O)(=O)NC(=O)Nc1nc(OC)cc(OC)n1` ?
No

Which outcome did this test record for the compound `CSC(=O)c1cccc2nnsc12` ?
No

Can you look up the reported call for CCC(O)=C1C(=O)CC(C(=O)O)CC1=O (stereo not drawn) for me?
No

Kindly provide the recorded test outcome for the following compound: `COc1c(Cl)ccc(Cl)c1C(=O)O`
No
